# study_system: panel of more than 300 wild-type and mutant kinases (313 kinase panel) (Homo sapiens, UniProt P78362)
# measurement_description: Kinase profiling in a biochemical assay panel (mobility shift assays and ELISA), %-inhibition at 1 μM; selectivity entropy
# details: kinase SRPK2; 1 μM
reported_endpoint: %-inhibition of SRPK2 (%)

INSERT INTO assay_data (molecule, unit_spec, reported) VALUES
  ('Cc1ccc(C(=O)Nc2ccc(CN3CCN(C)CC3)c(C(F)(F)F)c2)cc1C#Cc1cnc2cccnn12', '%', -3),
  ('O=S(=O)(c1cccc2cnccc12)N1CCCNCC1', '%', -1.36),
  ('C[C@@H](Oc1cc(-c2cnn(C3CCNCC3)c2)cnc1N)c1c(Cl)ccc(F)c1Cl', '%', -2.33),
  ('Cc1cn(-c2cc(NC(=O)c3ccc(C)c(Nc4nccc(-c5cccnc5)n4)c3)cc(C(F)(F)F)c2)cn1', '%', -0.605),
  ('CC(C)(C)c1nc(-c2cccc(NS(=O)(=O)c3c(F)cccc3F)c2F)c(-c2ccnc(N)n2)s1', '%', 11),
  ('COc1cc(Nc2c(C#N)cnc3cc(OCCCN4CCN(C)CC4)c(OC)cc23)c(Cl)cc1Cl', '%', -9),
  ('COc1cc2c(Nc3ccc(Br)cc3F)ncnc2cc1OCC1CCN(C)CC1', '%', -9),
  ('CO[C@H]1C[C@@H]2CC[C@@H](C)[C@@](O)(O2)C(=O)C(=O)N2CCCC[C@H]2C(=O)O[C@H]([C@H](C)C[C@@H]2CC[C@@H](OC(=O)C(C)(CO)CO)[C@H](OC)C2)CC(=O)[C@H](C)/C=C(\C)[C@@H](O)[C@@H](OC)C(=O)[C@H](C)C[C@H](C)/C=C/C=C/C=C/1C', '%', -3.79),
  ('Cc1ccc(Nc2nccc(N(C)c3ccc4c(C)n(C)nc4c3)n2)cc1S(N)(=O)=O', '%', -4),
  ('N#CC[C@H](C1CCCC1)n1cc(-c2ncnc3[nH]ccc23)cn1', '%', 9),
  ('CNC(=O)c1cc(Oc2ccc(NC(=O)Nc3ccc(Cl)c(C(F)(F)F)c3)c(F)c2)ccn1', '%', 5),
  ('CS(=O)(=O)CCNCc1ccc(-c2ccc3ncnc(Nc4ccc(OCc5cccc(F)c5)c(Cl)c4)c3c2)o1', '%', 4.47),
  ('CO[C@H]1C[C@@H]2CC[C@@H](C)[C@@](O)(O2)C(=O)C(=O)N2CCCC[C@H]2C(=O)O[C@H]([C@H](C)C[C@@H]2CC[C@@H](OCCO)[C@H](OC)C2)CC(=O)[C@H](C)/C=C(\C)[C@@H](O)[C@@H](OC)C(=O)[C@H](C)C[C@H](C)/C=C/C=C/C=C/1C', '%', -10),
  ('CC(=O)Nc1cccc(-n2c(=O)n(C3CC3)c(=O)c3c(Nc4ccc(I)cc4F)n(C)c(=O)c(C)c32)c1', '%', -0.868),
  ('COc1cc2nccc(Oc3ccc(NC(=O)C4(C(=O)Nc5ccc(F)cc5)CC4)cc3)c2cc1OC [cabozantinib]', '%', 0.2),
  ('CCCS(=O)(=O)Nc1ccc(F)c(C(=O)c2c[nH]c3ncc(-c4ccc(Cl)cc4)cc23)c1F', '%', -2.2);

====

# Lookup of reported %-inhibition of NuaK1 keyed by entry
# study_system: panel of more than 300 wild-type and mutant kinases (313 kinase panel) (Homo sapiens, UniProt O60285)
# Sequence (O60285 1-661): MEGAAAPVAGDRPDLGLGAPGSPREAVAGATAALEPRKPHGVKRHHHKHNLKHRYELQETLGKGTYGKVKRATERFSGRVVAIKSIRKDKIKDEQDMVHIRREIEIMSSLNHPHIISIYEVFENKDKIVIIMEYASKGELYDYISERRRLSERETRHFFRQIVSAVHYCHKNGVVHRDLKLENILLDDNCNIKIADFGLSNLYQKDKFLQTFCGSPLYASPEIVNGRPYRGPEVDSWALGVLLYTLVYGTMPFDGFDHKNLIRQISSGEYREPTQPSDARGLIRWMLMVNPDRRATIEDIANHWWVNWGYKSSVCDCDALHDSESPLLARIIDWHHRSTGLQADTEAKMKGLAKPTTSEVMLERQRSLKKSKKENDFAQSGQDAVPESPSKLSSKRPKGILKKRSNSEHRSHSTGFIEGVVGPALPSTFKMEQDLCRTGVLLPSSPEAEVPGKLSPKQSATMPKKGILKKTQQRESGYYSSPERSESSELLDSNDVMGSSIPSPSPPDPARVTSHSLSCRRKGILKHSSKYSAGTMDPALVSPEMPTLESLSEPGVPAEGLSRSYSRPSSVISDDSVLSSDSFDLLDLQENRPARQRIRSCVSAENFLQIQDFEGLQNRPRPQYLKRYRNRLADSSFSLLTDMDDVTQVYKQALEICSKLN
# measurement_description: Kinase profiling in a biochemical assay panel (mobility shift assays and ELISA), %-inhibition at 1 μM; selectivity entropy
# details: kinase NuaK1; 1 μM
reported_endpoint: %-inhibition of NuaK1 (%)

INSERT INTO measurements (compound, reported) VALUES
  ('Cc1ccc(C(=O)Nc2ccc(CN3CCN(C)CC3)c(C(F)(F)F)c2)cc1C#Cc1cnc2cccnn12 [ponatinib]', 5),
  ('CS(=O)(=O)CCNCc1ccc(-c2ccc3ncnc(Nc4ccc(OCc5cccc(F)c5)c(Cl)c4)c3c2)o1 [lapatinib]', 3),
  ('COc1cc2nccc(Oc3ccc(NC(=O)C4(C(=O)Nc5ccc(F)cc5)CC4)cc3)c2cc1OC [cabozantinib]', 7),
  ('CNC(=O)c1cc(Oc2ccc(NC(=O)Nc3ccc(Cl)c(C(F)(F)F)c3)c(F)c2)ccn1 [regorafenib]', -1.75),
  ('CO[C@H]1C[C@@H]2CC[C@@H](C)[C@@](O)(O2)C(=O)C(=O)N2CCCC[C@H]2C(=O)O[C@H]([C@H](C)C[C@@H]2CC[C@@H](OC(=O)C(C)(CO)CO)[C@H](OC)C2)CC(=O)[C@H](C)/C=C(\C)[C@@H](O)[C@@H](OC)C(=O)[C@H](C)C[C@H](C)/C=C/C=C/C=C/1C [temsirolimus]', 3.3),
  ('CC(=O)Nc1cccc(-n2c(=O)n(C3CC3)c(=O)c3c(Nc4ccc(I)cc4F)n(C)c(=O)c(C)c32)c1 [trametinib]', -0.634),
  ('Cc1ccc(Nc2nccc(N(C)c3ccc4c(C)n(C)nc4c3)n2)cc1S(N)(=O)=O [pazopanib]', 73);
